species on record: Rattus norvegicus; test: Open TG-GATES - Regimen: Daily Repeat; type: toxicity, organism-based, Sprague-Dawley; design: regimen Daily Repeat, gender Male, age 6 weeks; conditions: in vivo, po, 0 mg/kg, […], tissue Plasma, route gavage, dose level Control, time 28 day
outcome_measure: Ca (mg/dL)

INSERT INTO results (compound, outcome_measure, measure_unit, value_measured) VALUES
  ('NC(=O)N/N=C/c1ccc([N+](=O)[O-])o1 [NITROFURAZONE]', 'Ca', 'mg/dL', 10.9),
  ('CN(C)CCC=C1c2ccccc2CCc2ccccc21 [AMITRIPTYLINE]', 'Ca', 'mg/dL', 10.5),
  ('COc1ccc(Cc2nccc3cc(OC)c(OC)cc23)cc1OC [PAPAVERINE]', 'Ca', 'mg/dL', 10.2),
  ('CSc1ccc2c(c1)N(CCC1CCCCN1C)c1ccccc1S2 (stereo unspecified) [THIORIDAZINE]', 'Ca', 'mg/dL', 10.7),
  ('CCc1cc(C(N)=S)ccn1 [ETHIONAMIDE]', 'Ca', 'mg/dL', 10.2),
  ('O=C(O)c1cc(/N=N/c2ccc(S(=O)(=O)Nc3ccccn3)cc2)ccc1O [SULFASALAZINE]', 'Ca', 'mg/dL', 10.3);

----------
species on record: Rattus norvegicus; experiment: Open TG-GATES - Regimen: Single; assay type: toxicity, organism-based, Sprague-Dawley; design: regimen Single, gender Male, age 6 weeks; conditions: in vivo, po, 100 mg/kg, 6 h, tissue Kidney, route gavage, dose level Low
outcome_measure: KIDNEY_L (g)

INSERT INTO measurements (compound, outcome_measure, value_measured) VALUES
  ('Clc1ccccc1CN1CCc2sccc2C1', 'KIDNEY_L', 0.9),
  ('O=C(O)c1cn(C2CC2)c2cc(N3CCNCC3)c(F)cc2c1=O', 'KIDNEY_L', 0.9),
  ('CCc1cc(C(N)=S)ccn1 [ETHIONAMIDE]', 'KIDNEY_L', 1),
  ('O=C(O)c1cc(/N=N/c2ccc(S(=O)(=O)Nc3ccccn3)cc2)ccc1O', 'KIDNEY_L', 1),
  ('C[C@H](CS)C(=O)N1CCC[C@H]1C(=O)O', 'KIDNEY_L', 1.1);

----------
Reported TC values for a set of compounds
species on record: Rattus norvegicus; experiment: Open TG-GATES - Regimen: Daily Repeat; format: toxicity, organism-based, Sprague-Dawley; design: regimen Daily Repeat, gender Male, age 6 weeks; details: in vivo, po, 0 mg/kg, […], tissue Plasma, route gavage, dose level Control, time 28 day
outcome_measure: TC

INSERT INTO results (query_smiles, value_measured) VALUES
  ('COc1ccc2c(c1)c(CC(=O)O)c(C)n2C(=O)c1ccc(Cl)cc1', '79.6 mg/dL'),
  ('CC(=O)Oc1ccccc1C(=O)O', '65.4 mg/dL'),
  ('O=C(O)c1cn(C2CC2)c2cc(N3CCNCC3)c(F)cc2c1=O', '75.4 mg/dL'),
  ('O=C(O)c1cc(/N=N/c2ccc(S(=O)(=O)Nc3ccccn3)cc2)ccc1O', '68.8 mg/dL'),
  ('Cn1c(=O)c2[nH]cnc2n(C)c1=O.O', '65 mg/dL');

----------
organism: Rattus norvegicus; assay: Open TG-GATES - Regimen: Single; type: toxicity, organism-based, Sprague-Dawley; parameters: regimen Single, gender Male, age 6 weeks; conditions: in vivo, po, 0 mg/kg, 3 h, tissue Blood, route gavage, dose level Control
Reported RBC values for a set of compounds
outcome_measure: RBC

INSERT INTO results (compound, value_measured) VALUES
  ('NC(=O)N/N=C/c1ccc([N+](=O)[O-])o1 [NITROFURAZONE]', '586.4 x10_4/ul'),
  ('CSc1ccc2c(c1)N(CCC1CCCCN1C)c1ccccc1S2 (stereo not drawn) [THIORIDAZINE]', '592 x10_4/ul'),
  ('C[C@H](CS)C(=O)N1CCC[C@H]1C(=O)O [CAPTOPRIL]', '615.2 x10_4/ul');
